Below, each entry is listed with its recorded SPOT peptide array binding signal intensity.
assayed-system: SpRvs167
assay-explanation: SPOT peptide array binding signal intensity (averaged, normalized) (arbitrary units (background-subtracted, floor 0; scale differs between SH3 domains)); higher = stronger binding of the SH3 domain to the peptide
value-type: SPOT peptide array binding signal intensity

binder: RKRRTHLRLPLIRSN
value-operator: =
measured-value: 9.33
//
binder: VAPPPLPNRQLPNLD
value-operator: =
measured-value: 3250
//
binder: HGKRRAPLLLAKLDV
value-operator: ≤
measured-value: 0
//
binder: QGYPRQPQRPQRYHP
value-operator: =
measured-value: 3
//
binder: QRKSLRRPTLSKPAV
value-operator: =
measured-value: 14.5
//
binder: QQNRPLPQLPNRNNR
value-operator: =
measured-value: 2080
//
binder: SSTPTTPERPKRKSG
value-operator: =
measured-value: 450
